# assay_system: androgen receptor (AR) splicing variant AR-v7 (Homo sapiens, UniProt P10275)
# Construct: The degradation activity of compounds on AR-v7 in 22RV1 cells; host or cells: 22RV1 cells
# Sequence (P10275 1-644 isoform P10275-3): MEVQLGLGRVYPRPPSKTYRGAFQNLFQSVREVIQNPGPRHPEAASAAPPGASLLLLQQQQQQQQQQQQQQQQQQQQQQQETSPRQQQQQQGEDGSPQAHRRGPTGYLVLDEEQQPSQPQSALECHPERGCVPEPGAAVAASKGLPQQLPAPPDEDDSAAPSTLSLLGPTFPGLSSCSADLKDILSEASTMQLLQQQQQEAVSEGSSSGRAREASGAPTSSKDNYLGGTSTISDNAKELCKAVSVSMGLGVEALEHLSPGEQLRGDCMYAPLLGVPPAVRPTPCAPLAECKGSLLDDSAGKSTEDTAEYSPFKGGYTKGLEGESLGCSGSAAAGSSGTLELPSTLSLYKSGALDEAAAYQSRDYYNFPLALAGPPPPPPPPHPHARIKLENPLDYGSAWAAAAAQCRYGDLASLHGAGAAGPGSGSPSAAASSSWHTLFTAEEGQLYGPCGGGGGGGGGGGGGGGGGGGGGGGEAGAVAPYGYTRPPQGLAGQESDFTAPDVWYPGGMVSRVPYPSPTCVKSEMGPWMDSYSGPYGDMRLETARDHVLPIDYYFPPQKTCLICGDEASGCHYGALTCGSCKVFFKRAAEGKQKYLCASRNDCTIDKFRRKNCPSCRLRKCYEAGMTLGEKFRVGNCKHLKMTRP
# experiment_description: Degradation activity on androgen receptor splicing variant AR-v7 in 22RV1 cells (ELISA)
# Assay type: cell-based
# experimental_context: AR-v7 degradation in 22RV1 cells, 48 h, class symbols
measurement_kind: DC50

Solved entries:
- molecule: "CC(=O)c1nccc(COc2ccc(C(C)(C)c3ccc(OC[C@@H]4CCN4c4ccc5c(c4)C(=O)N(C4CCC(=O)NC4=O)C5=O)cc3)cc2)n1 (stereo partly shown) [Example 308]"
  DC50: "11 to 100 nM"
- molecule: "COc1nccc(COc2ccc(C(C)(C)c3ccc(OCCCNc4ccc5c(c4)C(=O)N(C4CCC(=O)NC4=O)C5=O)cc3)cc2)n1 (stereo not shown) [Example 68]"
  DC50: "11 to 100 nM"
- molecule: "Cc1nc(-c2ccc(Oc3ccc(C(C)(C)c4ccc(O[C@H]5C[C@@H](Nc6ccc7c(c6)C(=O)N(C6CCC(=O)NC6=O)C7=O)C5)cc4)cc3)nc2)no1 (stereo partly shown) [Example 213]"
  DC50: "11 to 100 nM"
- molecule: "CC(=O)c1ccc(Oc2ccc(C3(c4ccc(O[C@H]5C[C@H](Nc6ccc7c(c6)C(=O)N(C6CCC(=O)NC6=O)C7=O)C5)cc4)CCCC3)cc2)nn1 (stereo partly shown) [Example 104]"
  DC50: "< 10 nM"
- molecule: "CC(C)(c1ccc(OCCCNc2ccc3c(c2)C(=O)N(C2CCC(=O)NC2=O)C3=O)cc1)c1ccc(OCc2ccnc(N3CCC3)n2)cc1 (stereo not shown) [Example 383]"
  DC50: "11 to 100 nM"

Request: Fill blank: measured DC50 of the molecule CC(C)(c1ccc(OCc2ccnc(N3CC4(COC4)C3)n2)cc1)c1ccc(OC[C@@H]2CCN2c2ccc3c(c2)C(=O)N(C2CCC(=O)NC2=O)C3=O)cc1 (stereo partly shown) [Example 312] is ____.
Result: < 10 nM

Request: Would you mind doing CN(C)[C@@H]1CCN(c2nccc(COc3ccc(C(C)(C)c4ccc(O[C@H]5C[C@@H](Nc6ccc7c(c6)C(=O)N(C6CCC(=O)NC6=O)C7=O)C5)cc4)cc3)n2)C1 (stereo partly shown) [Example 456] as well?
Result: < 10 nM
